Cited source for all entries: paper PMC7181320

target: Y167F N-His6-FhuD2 (Staphylococcus aureus, UniProt Q7BGA5, Y191F); experiment: Intrinsic Trp fluorescence quenching binding assay, FhuD2 mutant Y167F; design: species or system S. aureus; conditions: app Kd, FhuD2 variant Y167F
parameter measured: Kd (nM)
One number for each entry, in nM.

Request: Item under review: CC(=O)N(O)CCCCCNC(=O)CCC(=O)N(O)CCCCCNC(=O)CCC(=O)N(O)CCCCCN . Reported Kd?
Result: 60

###

target: R175A (Staphylococcus aureus, UniProt Q7BGA5, R199A); assay: Intrinsic Trp fluorescence quenching; conditions: read-out: app Kd; SD, n = 2
parameter measured: pKd
Give bare numbers, as −log10 of the molar value.

Request: Item under review: CC(=O)N([O-])CCCCCNC(=O)CCC(=O)N([O-])CCCCCNC(=O)CCC(=O)N([O-])CCCCCN.[Fe+3] [FOB, ferrioxamine B] . Reported pKd?
Result: 7.52
